- TARGET_ENTITY: PSMA (Homo sapiens, UniProt Q04609)
- Sequence (Q04609 whole entry): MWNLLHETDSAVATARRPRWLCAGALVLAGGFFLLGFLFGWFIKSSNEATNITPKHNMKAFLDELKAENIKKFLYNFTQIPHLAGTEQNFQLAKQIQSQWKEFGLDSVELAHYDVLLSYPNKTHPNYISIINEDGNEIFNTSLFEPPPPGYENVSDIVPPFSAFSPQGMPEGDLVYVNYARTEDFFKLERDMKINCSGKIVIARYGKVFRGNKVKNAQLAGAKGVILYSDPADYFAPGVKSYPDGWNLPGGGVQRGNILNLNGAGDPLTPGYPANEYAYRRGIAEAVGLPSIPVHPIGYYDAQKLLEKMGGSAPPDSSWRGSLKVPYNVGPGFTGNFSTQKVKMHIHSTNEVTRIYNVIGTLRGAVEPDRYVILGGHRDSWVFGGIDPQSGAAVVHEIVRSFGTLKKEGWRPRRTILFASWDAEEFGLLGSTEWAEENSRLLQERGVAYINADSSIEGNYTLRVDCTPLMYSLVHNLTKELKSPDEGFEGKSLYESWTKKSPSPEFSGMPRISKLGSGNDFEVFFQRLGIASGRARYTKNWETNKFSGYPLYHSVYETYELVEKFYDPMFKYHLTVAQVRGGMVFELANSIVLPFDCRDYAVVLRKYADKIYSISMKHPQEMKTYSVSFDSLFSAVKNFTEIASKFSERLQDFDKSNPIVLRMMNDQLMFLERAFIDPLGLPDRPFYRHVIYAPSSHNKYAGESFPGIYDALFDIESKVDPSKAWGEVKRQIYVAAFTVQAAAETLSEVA
Measured IC50 by item
Expressed in nM, but write only the number.

COMPOUND	TARGET_ENTITY	IC50, nM
O=C(O)CC[C@H](NC(=O)N[C@@H](CCCCNC(=O)[C@H](Cc1ccc2ccccc2c1)NC(=O)[C@H]1CC[C@H](CNC(=O)c2ccc([18F])nc2)CC1)C(=O)O)C(=O)O	PSMA (Homo sapiens, UniProt Q04609)	3

Let us move to another entry and its IC50.
Q: Value wanted: IC50 (PSMA (Homo sapiens, UniProt Q04609)) of entry O=C(O)CCC(NC(=O)NC(CCCCNC(=O)C(Cc1ccc2ccccc2c1)NC(=O)c1ccc(CNC(=O)CO/N=C\C([18F])C(O)C(O)C(O)CO)cc1)C(=O)O)C(=O)O (centres unmarked)
Ans: 7

Taken from patent US10016519B2.
